Measured cell viability by item
# Test system: MOLM14
# assayMethodText: cell viability relative to vehicle control; higher = less cytotoxic;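 note: after 48 h exposure read by CellTiter-Glo luminescence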
# settings: 10 µM; SRSF2 genotype: SRSF2 P95H/wt
Structures can show the parent of a compound that is named as a salt.
Form entry: value (%) — number only.

Field: example entries. Status: answers known.
{"compound": "CN1[C@@H]2CC[C@H]1C[C@@H](OC(=O)C(CO)c1ccccc1)C2 (stereo not given in full) [Atropine sulfate]", "valueMeasured": 110}
{"compound": "CC[N+](C)(CC)CCOC(=O)C(O)(c1ccccc1)c1ccccc1 [Methylbenactyzine Bromide]", "valueMeasured": 96.1}
{"compound": "O=c1ccc2c(O)c3ccoc3cc2o1 [Bergaptol]", "valueMeasured": 113}
{"compound": "CC1=C2C(=O)[C@H]3[C@@H](CC=C4C[C@@H](O)CC[C@@]43C)[C@@H]2CC[C@]12O[C@@H]1C[C@H](C)CN[C@H]1[C@H]2C [Jervine]", "valueMeasured": 91.4}
{"compound": "O=C(c1ccccc1O)c1[nH]c(Cl)c(Cl)c1-n1c(C(=O)c2ccccc2O)cc(Cl)c1Cl [Marinopyrrole A (Maritoclax)]", "valueMeasured": 13.5}

Entry under review: COc1ccc2c(c1OC)CN1CCc3cc4c(cc3C1C2)OCO4 (stereo not given) [Tetrahydroberberine] . Reported cell viability?
81.2

Lookup COc1ccc(C=O)cc1O [Isovanillin]
106

Next: OC(CNc1ccccc1)Cn1c2ccc(Br)cc2c2cc(Br)ccc21 (stereo not given)
87.2

Consider next the compound "O=C(NCC1CCOCC1)c1cnc(Nc2ccc(Cl)cc2Cl)nc1C(F)(F)F" in the same way.
103

Queued: ClCCN(Cc1ccccc1)Cc1ccccc1 [Dibenamine Hydrochloride]
94.8

Now the same for Cc1cc(C(C#N)c2ccc(Cl)cc2)c(Cl)cc1NC(=O)c1cc(I)cc(I)c1O (stereo not given) [Closantel]
99

What about this compound? "CC1(C)C(=O)N(c2ccc(C#N)c(C(F)(F)F)c2)C(=O)N1CCCCO"
93.5

What do you have for CC1CCC2N(C1)CC1C3CC4C(CC(=O)C5CC(O)CCC54C)C3CCC1C2(C)O (stereo not given) [Peiminine] ?
87

Thanks! And CN(C)CCc1ccc(O)cc1 [Hordenine] ?
101

Lookup CC(C)c1ccc(CO)cc1 [4-Isopropylbenzyl Alcohol]
102

Further, for O=C(O[C@H]1C[C@H]2CC[C@@H](C1)[N+]21CCCC1)C(O)(c1ccccc1)c1ccccc1 [Trospium chloride (Sanctura)] ?
99.4

Could you do the same for C[C@]12CCC(=O)C[C@@H]1CC[C@@H]1[C@@H]2CC[C@]2(C)[C@@H](O)CC[C@@H]12 [Dihydrotestosterone (DHT)] , please?
93.9

* * *

# Test system: K562
# assayMethodText: cell viability relative to vehicle control; higher = less cytotoxic
# settings: 10 µM; SRSF2 genotype: SRSF2 wt/wt
Where a name gives a salt, the structure may show the parent alone.
Recorded cell viability values for a group of molecules are listed next.

Record excerpt, results attached:
{"molecule": "ClCCN(Cc1ccccc1)Cc1ccccc1 [Dibenamine Hydrochloride]", "cell viability": "91.5%"}
{"molecule": "CCC(C)C(=O)O[C@@H]1[C@@H](OC(C)=O)[C@]2(C)[C@H](C(C)=O)CC[C@@]23O[C@]32CC[C@H]3C[C@@H](O[C@H]4C[C@@H](OC)[C@H](O[C@@H]5O[C@H](C)[C@@H](O)[C@@H](OC)[C@H]5O)[C@@H](C)O4)CC[C@]3(C)[C@@H]12 (stereo not given in full) [Tenacissoside H]", "cell viability": "97.7%"}
{"molecule": "CC(C)c1ccc2c(c1O)CC[C@H]1C3=C(CC[C@]21C)C(=O)OC3 [Triptophenolide]", "cell viability": "79.5%"}
{"molecule": "C=C1C[C@@H]2[C@H](CC[C@]3(C)C(=O)CC[C@@H]23)[C@@]2(C)C=CC(=O)C=C12", "cell viability": "100%"}
{"molecule": "CN1CCCCC1Cn1cc(C(=O)c2cc([N+](=O)[O-])ccc2I)c2ccccc21 (stereo not given)", "cell viability": "87.2%"}
{"molecule": "CC1CCC2N(C1)CC1C3CC4C(CC(=O)C5CC(O)CCC54C)C3CCC1C2(C)O (stereo not given)", "cell viability": "86.1%"}

Which cell viability is reported for this molecule? CC(C)=CCCC(C(=O)O)C1CCC2(C)C3=C(CCC12C)C1(C)CCC(=O)C(C)(C)C1CC3 (stereo not given)
87.7%

What do you get for "O=c1[nH]c2ccc(Cl)cc2c(N[C@@H]2CN3CCC2CC3)c1-c1nc2ccccc2[nH]1" ?
0.48%

O=C(C[S+]([O-])C(c1ccccc1)c1ccccc1)NO (stereo not given) , same question.
103%

Now the molecule "C=CC[C@]1(O)CC[C@H]2[C@@H]3CCC4=CC(=O)CCC4=C3C=C[C@@]21C"
97.5%

Another molecule to check: CC(=O)OCC1=C(C(=O)O)N2C(=O)C(N)C2SC1 (stereo not given)
102%
